System: 786-0 renal
Assay: NCI-60 one-dose screen, 48 h (100 = growth as untreated, 0 = no growth, -100 = all killed)
Conditions: 10 µM unless noted
This is part of a sample that, as a whole, favours compounds with a hit. Of some 83,000 tested, about 20% had one in any assay.
I'd appreciate it if you could supply growth values for the items below.
All answers are understood in %, so give the number only.

// query Look up growth for this compound: COc1cc2ncnc(Nc3ccc(F)c(Cl)c3)c2cc1OCC(=O)N1CCCCC1
// result 78.2

// query Likewise for CC(Sc1ccccc1)C(=O)O (stereo unspecified) ?
// result 118

// query Likewise for O=C1C(Nc2ccc(Cl)cc2)=C(I)C(=O)c2ncccc21 ?
// result 26.1

// query Likewise for CCn1cc(C(=O)NN=C2CCCC2)c(=O)c2ccc(C)nc21 ?
// result 93.1

// query Likewise for O=C(CCCCCCCCC(=O)N/N=C\c1ccccc1O)N/N=C\c1ccccc1O ?
// result 3.41

// query Likewise for FC(F)(F)Sc1ccc(/C=C/c2cc(/C=C/c3ccc(SC(F)(F)F)cc3)n(-c3ccccc3)n2)cc1 ?
// result 91.8

----------
Tested on: LOX IMVI melanoma
Assay: NCI-60 one-dose screen, 48 h
Conditions: 10 µM unless noted
About 83,000 compounds went through this panel and 20% of them were active in at least one assay; those are over-represented in the sample as a whole. The source made the active and inactive calls. The calls were made as follows: active = growth percent below 10; inactive = the rest.
Reply using exactly one outcome from active, inactive

// query Please share the test call associated with Nc1n[nH]c2cccc(C#Cc3cccc(C(=O)Nc4ccc(CN5CCOCC5)c(C(F)(F)F)c4)c3)c12 .
// result active

// query Likewise for c1ccc(-c2cc(-c3cc(-c4ccccc4)on3)no2)cc1 ?
// result inactive

// query Likewise for O=C1/C(=C/c2ccc(-c3cccc(C(F)(F)F)c3)o2)SC(=S)N1CCc1ccc(O)cc1 ?
// result inactive

// query Likewise for O=C1/C(=C/c2ccc(-c3ccccc3C(F)(F)F)o2)SC(=S)N1CCc1ccc(O)cc1 ?
// result inactive

// query Likewise for CC/C(=C(/c1ccc(O)cc1)c1ccc(OCCN2CCCCCC2)cc1)c1ccc(Cl)cc1 ?
// result inactive

----------
Tested on: K-562 leukemia
Experiment: NCI-60 one-dose screen, 48 h (100 = growth as untreated, 0 = no growth, -100 = all killed)
Settings: 10 µM unless noted
About 83,000 compounds went through this panel and 20% of them were active in at least one assay; those are over-represented in the sample as a whole. Calls of active or inactive are those of the source. How the source made its calls: active means growth percent below 10; inactive means the rest.
Recorded Endpoint: growth

// query Look up growth for this compound: Cc1ccc(Cc2cnc(NC(=O)c3cc(C)oc3C)s2)cc1
// result 29.5% (inactive)

// query Likewise for CC/C(=C(/c1ccc(O)cc1)c1ccc(OCCN2CCCCCC2)cc1)c1ccc(Cl)cc1 ?
// result -21.5% (active)

// query Likewise for Nc1n[nH]c2cccc(C#Cc3cccc(NC(=O)c4ccc(N5CCOCC5)c(C(F)(F)F)c4)c3)c12 ?
// result 0.995% (active)

// query Likewise for CCCCC#Cc1c(/C=C(\CCCC)SCC)n(C)c(=O)[nH]c1=O ?
// result 72.2% (inactive)

// query Likewise for Cc1nc(-n2[nH]c(=O)ccc2=O)sc1N=Nc1ccccc1 ?
// result 101% (inactive)

// query Likewise for Cc1nc2sc(C(=O)Nc3cccc(Cl)c3C)c(N)c2cc1C(O)c1ccccc1 (stereo not given) ?
// result 6.05% (active)

// query Likewise for C#Cc1cc(C(=O)Nc2ccc(CN3CCN(C)CC3)c(C(F)(F)F)c2)ccc1C ?
// result 7.97% (active)

// query Likewise for COc1ccc(-c2[nH]c3ccccc3c2-c2ccc(OC)cc2)cc1 ?
// result 3.69% (active)

// query Likewise for COc1ccc2c(O)c(/C=C3\N=Nc4nc(C)ccc43)oc2c1CC1CCNCC1 ?
// result 49.3% (inactive)

// query Likewise for NCCOCCOc1ccccc1 ?
// result 108% (inactive)

Reference source for all entries: PubChem BioAssay (NCI)
